Source listed as paper PMC12023841.

Procedure Summary: In-vitro cytotoxicity test, Neutral Red uptake
Format: cell-based, Human
Conditions Used: human, HaCaT keratinocytes, 0.00025 µg/ml, 24 hours; read-out: Cell viability (% as compared to the negative control), replicates
Reported Metric: viability at 24 h, 0.00025 µg/ml

Data point: CCCCNc1ccc2nc3cc(NCCOC)c(N)cc3[n+](CCC)c2c1 [5a4] ; viability at 24 h, 0.00025 µg/ml = > 96%

----------
Tested on: SA 1199 (Wild‐type, basal)
Procedure Summary: MIC, broth microdilution (CLSI)
Format: cell-based
Conditions Used: Staphylococcus aureus
// classify: if (MIC < 8 µg/mL) met else not met

Ask | Record CCCCNc1ccc2nc3cc(NCCCC)c(N)cc3[n+](CCCC)c2c1 : is its MIC strictly below 8 µg/mL?
Reply | met

Ask | Record CCCCNc1ccc2nc3cc(NCCOC)c(N)cc3[n+](CCC)c2c1 : is its MIC strictly below 8 µg/mL?
Reply | met

Ask | Record CCCCNc1ccc2nc3cc(NCCC)c(N)cc3[n+](CCC)c2c1 : is its MIC strictly below 8 µg/mL?
Reply | met

Ask | Record CCCCNc1ccc2nc3cc(NCCC)c(N)cc3[n+](CCCC)c2c1 : is its MIC strictly below 8 µg/mL?
Reply | not met

Ask | Record CCCCCCCCNc1cc2nc3ccc(NCCCC)cc3[n+](CCC)c2cc1N : is its MIC strictly below 8 µg/mL?
Reply | not met

Ask | Record CCCCNc1ccc2nc3cc(NCCCC)c(N)cc3[n+](CCC)c2c1 : is its MIC strictly below 8 µg/mL?
Reply | met

Ask | Record CCCCCCCCNc1ccc2nc3cc(NCCCCCCCC)c(N)cc3[n+](CCCCCCCC)c2c1 : is its MIC strictly below 8 µg/mL?
Reply | not met

Ask | Record CCCCCCCCNc1ccc2nc3cc(NCCC)c(N)cc3[n+](CCCCCCCC)c2c1 : is its MIC strictly below 8 µg/mL?
Reply | not met

Ask | Record CCCCNc1cc2nc3ccc(NCCC)cc3[n+](CCC)c2cc1N : is its MIC strictly below 8 µg/mL?
Reply | met

Ask | Record CCCCCCCCNc1cc2nc3ccc(NCCCC)cc3[n+](CCCCCCCC)c2cc1N : is its MIC strictly below 8 µg/mL?
Reply | not met

Ask | Record CCCCCCCC[n+]1c2cc(NCCCC)ccc2nc2cc(NCCOC)c(N)cc21 : is its MIC strictly below 8 µg/mL?
Reply | met
